Target: Human cGAS amino acids 155-522 (Homo sapiens (Human))
Sequence (Q8N884 157-522): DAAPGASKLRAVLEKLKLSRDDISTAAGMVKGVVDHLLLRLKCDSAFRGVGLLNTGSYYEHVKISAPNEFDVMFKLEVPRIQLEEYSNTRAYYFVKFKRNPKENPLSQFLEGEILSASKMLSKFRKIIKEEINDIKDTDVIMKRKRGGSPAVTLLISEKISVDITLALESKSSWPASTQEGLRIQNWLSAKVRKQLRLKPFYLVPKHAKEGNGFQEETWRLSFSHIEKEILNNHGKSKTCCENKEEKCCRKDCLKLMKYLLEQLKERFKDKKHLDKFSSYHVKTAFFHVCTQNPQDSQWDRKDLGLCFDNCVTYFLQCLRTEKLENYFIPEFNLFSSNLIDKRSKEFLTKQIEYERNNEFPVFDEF
Test: cGAS biochemical activity assay (ATP remaining, Kinase-Glo Max luminescence)
Conditions: human cGAS 155-522, ATP remaining (Kinase-Glo Max); read-out: cGAS IC50
pIC50: −log10 of the molar value.
Measured Metric: pIC50

compound_structure=Cc1[nH]c2c(-c3ccccc3)c(C(F)(F)F)nn2c(=O)c1-c1nc2c(OCC3CC3)cccc2o1 result="> 4.70"

Next molecule, please.
Please give the measured pIC50 for this molecule: `Cc1[nH]c2c(-c3ccccc3)c(C(F)(F)F)nn2c(=O)c1-c1nnc(NC(=N)N)o1`
> 4.70
